Experiment: thallium flux activation in parental CHO cells, counter-screen for KCNQ1 potentiator project (AID 493006);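 on activation: fluorescence ratio of max minus min over baseline after K+ and Tl+ depolarization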
Details: parental CHO-K1 cells, FluxOR thallium flux, at 10 µM
Activity calls are given as the source filed them.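 How the source made its calls: active means duplicate-averaged activation above buffer control mean plus 5 SD of those controls; inactive means the rest.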
Can you answer with just one of these options? 1 (active), -1 (inactive)

INSERT INTO measurements (compound, qualitative_label) VALUES
  ('CCc1nnc(NC(=O)CCC(=O)N2CCN(C3CCCCC3)CC2)s1', -1),
  ('O=C(NC(=S)Nc1nc2c(s1)CCCC2)c1ccccc1', -1),
  ('CCCn1c(=S)[nH]c2ccc(C(F)(F)F)cc21', 1),
  ('CCN(C(=O)c1cc2c(=O)[nH]c3ccc(C)cc3c2s1)c1ccccc1F', -1),
  ('CCc1nccn1S(=O)(=O)c1ccc2ccc(C)cc2c1', -1);

In the following, a different compound is considered.
Would you mind telling me which call this test gave CC(=O)NC(CC(=O)O)C(=O)O (stereo unspecified) ?
-1
